target: Beta-hexosaminidase (Pseudomonas aeruginosa (strain ATCC 15692 / PAO1 / 1C / PRS 101 / LMG12228), UniProt Q9HZK0); experiment: Inhibition of Pseudomonas aeruginosa PAO1 nagZ gene after 1.5 hrs by fluorescence spectrophotometry
Sequence (Q9HZK0 whole entry): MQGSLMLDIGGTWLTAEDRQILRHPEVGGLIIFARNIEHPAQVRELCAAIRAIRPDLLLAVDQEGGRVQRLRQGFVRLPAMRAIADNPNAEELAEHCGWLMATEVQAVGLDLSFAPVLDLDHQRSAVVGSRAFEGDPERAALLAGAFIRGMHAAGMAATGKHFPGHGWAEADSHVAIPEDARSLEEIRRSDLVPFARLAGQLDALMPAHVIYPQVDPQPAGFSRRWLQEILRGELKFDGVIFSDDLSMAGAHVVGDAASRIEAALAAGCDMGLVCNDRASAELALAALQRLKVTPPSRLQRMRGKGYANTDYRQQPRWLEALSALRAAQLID
pKi: −log10 of the molar value.

>  <Smiles str>
CCC(CC)C(=O)N[C@H]1/C(=N/OC(=O)Nc2ccccc2)O[C@H](CO)[C@@H](O)[C@@H]1O

>  <pKi>
5.46

$$$$
